Molecular target: human NaV1.7 (Homo sapiens, UniProt Q15858)
Construct: permanently transfected with an expression vector containing the full-length cDNA coding for the desired human sodium channel α-subunit
Sequence (Q15858 1-1977 isoform Q15858-3): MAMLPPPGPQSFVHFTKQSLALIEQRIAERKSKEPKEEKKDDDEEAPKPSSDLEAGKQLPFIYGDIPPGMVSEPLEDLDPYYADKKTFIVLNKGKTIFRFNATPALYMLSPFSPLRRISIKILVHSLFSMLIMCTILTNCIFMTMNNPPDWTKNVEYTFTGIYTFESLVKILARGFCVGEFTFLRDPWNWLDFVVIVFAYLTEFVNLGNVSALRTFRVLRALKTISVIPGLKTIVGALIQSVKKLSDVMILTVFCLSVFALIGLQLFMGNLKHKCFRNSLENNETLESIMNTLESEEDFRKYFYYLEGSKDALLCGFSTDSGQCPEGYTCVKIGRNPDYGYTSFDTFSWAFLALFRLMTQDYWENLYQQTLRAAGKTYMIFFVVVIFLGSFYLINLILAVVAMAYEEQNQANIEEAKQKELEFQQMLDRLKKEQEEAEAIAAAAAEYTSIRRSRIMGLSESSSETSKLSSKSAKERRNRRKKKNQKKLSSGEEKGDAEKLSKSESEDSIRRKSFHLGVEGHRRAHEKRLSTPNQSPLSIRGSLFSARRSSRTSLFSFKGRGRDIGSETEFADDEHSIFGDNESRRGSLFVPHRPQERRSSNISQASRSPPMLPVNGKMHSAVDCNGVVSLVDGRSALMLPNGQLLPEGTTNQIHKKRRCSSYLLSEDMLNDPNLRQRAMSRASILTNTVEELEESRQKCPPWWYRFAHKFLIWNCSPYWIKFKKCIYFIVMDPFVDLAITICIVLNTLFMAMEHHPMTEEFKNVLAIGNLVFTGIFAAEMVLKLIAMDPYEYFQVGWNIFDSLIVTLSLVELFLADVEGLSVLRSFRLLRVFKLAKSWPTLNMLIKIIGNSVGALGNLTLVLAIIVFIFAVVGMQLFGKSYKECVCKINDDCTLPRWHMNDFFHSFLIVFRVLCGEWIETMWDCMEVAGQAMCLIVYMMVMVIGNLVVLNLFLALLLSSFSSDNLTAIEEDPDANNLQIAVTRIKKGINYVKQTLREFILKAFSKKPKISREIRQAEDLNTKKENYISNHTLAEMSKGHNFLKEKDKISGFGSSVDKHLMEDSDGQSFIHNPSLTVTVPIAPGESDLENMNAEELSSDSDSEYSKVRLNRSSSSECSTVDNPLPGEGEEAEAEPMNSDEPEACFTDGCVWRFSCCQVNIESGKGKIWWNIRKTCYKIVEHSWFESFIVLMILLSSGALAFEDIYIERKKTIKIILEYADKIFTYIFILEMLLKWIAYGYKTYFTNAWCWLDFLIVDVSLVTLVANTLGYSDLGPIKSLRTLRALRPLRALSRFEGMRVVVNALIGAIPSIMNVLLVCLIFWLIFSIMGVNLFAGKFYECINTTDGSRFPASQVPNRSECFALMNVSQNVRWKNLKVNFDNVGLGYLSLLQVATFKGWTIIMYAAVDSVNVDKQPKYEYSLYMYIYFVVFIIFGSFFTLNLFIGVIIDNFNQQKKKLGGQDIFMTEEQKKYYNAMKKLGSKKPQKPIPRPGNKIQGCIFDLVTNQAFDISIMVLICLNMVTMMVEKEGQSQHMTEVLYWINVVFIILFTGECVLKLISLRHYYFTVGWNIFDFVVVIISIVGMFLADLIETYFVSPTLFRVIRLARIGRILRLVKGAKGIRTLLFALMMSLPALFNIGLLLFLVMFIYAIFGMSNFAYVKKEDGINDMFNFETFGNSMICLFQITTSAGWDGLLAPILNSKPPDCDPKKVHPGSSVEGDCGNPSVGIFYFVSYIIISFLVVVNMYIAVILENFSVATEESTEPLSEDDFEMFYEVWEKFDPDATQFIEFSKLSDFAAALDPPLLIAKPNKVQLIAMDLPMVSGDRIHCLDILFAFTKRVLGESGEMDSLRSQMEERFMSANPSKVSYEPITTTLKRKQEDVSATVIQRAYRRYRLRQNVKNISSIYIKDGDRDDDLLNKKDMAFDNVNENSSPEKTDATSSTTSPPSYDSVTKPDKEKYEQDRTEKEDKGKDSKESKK
Sequence (Q07699 19-218 partner): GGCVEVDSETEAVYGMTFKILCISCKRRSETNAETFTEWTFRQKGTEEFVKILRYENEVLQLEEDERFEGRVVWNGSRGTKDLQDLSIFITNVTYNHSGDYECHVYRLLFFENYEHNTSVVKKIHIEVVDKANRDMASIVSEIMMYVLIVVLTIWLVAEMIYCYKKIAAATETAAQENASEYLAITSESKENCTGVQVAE
Test: Patch voltage clamp electrophysiology assay (EP), NaV1.7
Settings: HEK-293 cells stably expressing NaV1.7 with β1 subunit; whole-cell patch clamp, membrane potential −60 mV (inactivated state)
Method: The following patch voltage clamp electrophysiology studies were performed on representative compounds of the invention using human embryonic kidney cells (HEK), permanently transfected with an expression vector containing the full-length cDNA coding for the desired human sodium channel α-subunit, grown in culture media containing 10% FBS, 1% PSG, and 0.5 mg/mL G418 at 37° C. with 5% CO2. […]
Structures can show the parent of a compound that is named as a salt.
endpoint.label: IC50 (nM)

| compound | IC50, nM |
| --- | --- |
| O=C(O)[C@H]1C[C@@H](O)CN1C(=O)c1cc(C2CC2)c(OCC23CC4CC(CC(C4)C2)C3)cc1F | 16000 |
| C[C@@H](c1cc(Cl)cc(Cl)c1)N1CCC(COc2cc(F)c(C(=O)N3C[C@H](Cl)C[C@H]3C(=O)O)cc2C2CC2)CC1 | 780 |

P: O=C(O)[C@@H]1CCCN1C(=O)c1cc(C2CC2)c(CN2CC(Oc3cc(Cl)cc(Cl)c3)C2)cc1F
Q: O=C(O)[C@@H]1CCCN1C(=O)c1cc(C2CC2)c(OCC2CCN(C(c3ccccc3)c3cc(Cl)cc(Cl)c3)CC2)cc1F (stereo partly shown) [Example 193, trifluoroacetate]
q: In terms of reported IC50, does P or Q have the smaller number? State your choice using its label.
a: Q
